Kindly supply the reported composite Z-score values for the records listed here.
assay.overview: probe aXIP binding to arrayed compounds – biochemical, NeuroSMM set, 635/667 nm fluorescence, primary screen (AID 1119);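 further: probe is the protein aXip251-270 applied at 1 µg/mL to compound-printed slides; binding of probe to printed compounds measured as 667 nm fluorescence plus signal to noise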
test.context: small-molecule microarray, higher = more signal, called active from +8 up or from −8 down
Numbers only.

COC(=O)[C@@]1(Cc2ccc(OC)cc2)[C@H]2c3cc(C(=O)N4CCCC4)n(Cc4ccc(C(F)(F)F)nc4)c3C[C@H]2CN1C(=O)c1ccccc1 | -0.325
C=CCOC(=O)[C@@H]1[C@H]2C(=O)O[C@H](c3ccccc3)[C@H](c3ccccc3)N2[C@H](c2ccc(OCCOC(=O)[C@H]3C[C@H]4C(=O)N[C@@H](CCCCN(C)C)C(=O)N4[C@H]3c3ccc(O)cc3)cc2)[C@@]12C(=O)Nc1ccc(I)cc12 | 0.929
CCOC(=O)C[C@H]1[C@H](OC(=O)Cc2ccc3c(c2)OCO3)[C@@H](NC(=O)Cc2ccc(OC)cc2)c2cc(OCCCO)ccc2N1C(=O)Cc1ccc(OC)cc1 | 0.472
COC(=O)[C@H](Cc1ccccc1)N1CC2=CCCC=C[C@@H]2[C@H]1[C@H](O)Cc1ccccc1 | 0.495
CC1CC/C=C\[C@H]2OC34C=CCN(c5ccc6ccccc6c5)C(=O)[C@H]3N(C(C)CO)C(=O)[C@@H]4C2C(=O)O1 (some centres not stated) | -0.105

Give composite Z-score for all compounds that follow.
1. COc1ccc(C(=O)Nc2ccc(CN3C(=O)[C@@]4(O[C@@H](CCn5cc(CCO)nn5)[C@H]([Si](C)(C)c5ccc(OC)cc5)[C@H]4C)c4ccccc43)cc2)cc1
2. Cc1ccc(S[C@]2(C(=O)NCc3ccccc3)CC(=O)N(Cc3ccccc3C(F)(F)F)[C@@H]2c2ccc(CO)cc2)cc1
3. COCCOC(=O)N1C(=O)[C@@]2(c3cc(C#CCCO)ccc31)[C@H](c1ccccc1OCCO)N1[C@H](c3ccccc3)[C@H](c3ccccc3)OC(=O)[C@H]1[C@@H]2C(N)=O
4. C=CCOC(=O)[C@H]1[C@@H]2C(=O)O[C@@H](c3ccccc3)[C@@H](c3ccccc3)N2[C@@H](c2ccc(OCCOC(=O)[C@@H]3C[C@@H]4C(=O)N[C@@H](CCCCNC(C)=O)C(=O)N4[C@@H]3c3cccc(OCCO)c3)cc2)[C@]12C(=O)Nc1ccccc12
5. CN1C(=O)C2C(C1=O)C1C=C(c3ccc(CO)cc3)C2C(C2CC2)N1C (configuration not stated)
6. O=C(NCCN1CCOCC1)[C@@H]1c2ccccc2C(=O)N(Cc2ccc(OC(F)(F)F)cc2)[C@H]1c1ccc(CO)cc1

[0.32, 0.131, -0.0135, 1.36, 0.111, -0.265]

GET /values?readout=composite Z-score&item= `COCCOC(=O)N1C(=O)[C@@]2(c3cc(C#CCC(C(=O)OC)C(=O)OC)ccc31)[C@H](c1ccc(O)cc1)N1[C@H](c3ccccc3)[C@H](c3ccccc3)OC(=O)[C@H]1[C@@H]2C(=O)Nc1nc2ccccc2s1`
0.179
